assay: ATG_M_06_TRANS: Attagene TRANS-FACTORIAL HepG2 Assay for M06 Transcription Factor (Internal Marker) (AID 2282983); conditions: HepG2 Attagene TRANS M06 internal marker reporter;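 also: reporter transcript level by RT-PCR then capillary electrophoresis fluorescence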
Results filed as inconclusive are left out. The source made the active and inactive calls. The calls were made as follows: active = hit-call score of the fitted dose curve at least 0.9, where 1 is the maximum; inconclusive = response in the unintended direction; inactive = score below 0.9.
experimental readout: outcome

{"compound": "O=Cc1ccc(F)cc1", "test value": "inactive"}
{"compound": "CC(=O)[C@H]1CC[C@H]2[C@@H]3CC=C4C[C@@H](O)CC[C@]4(C)[C@H]3CC[C@]12C", "test value": "inactive"}
{"compound": "Cc1ccc2sc3cccc(C)c3c2c1", "test value": "inactive"}
{"compound": "CC1=CCC(O)(C(C)C)CC1 (stereo not given)", "test value": "inactive"}
{"compound": "COc1c(Cl)c(Cl)c(Cl)c(Cl)c1Cl", "test value": "inactive"}
{"compound": "COc1cc(C=O)ccc1OC(=O)C(C)C", "test value": "inactive"}
{"compound": "O=C1CCCCCCCCCCOCCCCO1", "test value": "inactive"}
{"compound": "CC1=CCC2C(C1)C2(C)C (stereo not given)", "test value": "inactive"}
{"compound": "O=C(O)c1cccc(C(F)(F)F)c1", "test value": "inactive"}
{"compound": "O=C[C@@H](O)[C@H](O)[C@H](O)CO", "test value": "inactive"}
{"compound": "CCCCCCCCCCCCOCCO", "test value": "inactive"}
{"compound": "O=c1cc(-c2ccccc2)oc2cc(O)cc(O)c12", "test value": "inactive"}
{"compound": "CCCC(=O)c1cc(O)c(O)cc1O", "test value": "inactive"}
{"compound": "O=C1CCc2ccccc2O1", "test value": "inactive"}
{"compound": "CC(C)(C)NC(N)=O", "test value": "inactive"}

###

target: Bile acid receptor (Homo sapiens) (UniProt Q96RI1); assay: ATG_IR1_CIS: Attagene CIS-FACTORIAL HepG2 Assay for human Nuclear Receptor Subfamily 1 Group H Member 4 (NR1H4), IR1 submotif (AID 2282946); settings: IR1 reporter transcription, actives raise or lower the signal
Sequence (Q96RI1 whole entry, looked up): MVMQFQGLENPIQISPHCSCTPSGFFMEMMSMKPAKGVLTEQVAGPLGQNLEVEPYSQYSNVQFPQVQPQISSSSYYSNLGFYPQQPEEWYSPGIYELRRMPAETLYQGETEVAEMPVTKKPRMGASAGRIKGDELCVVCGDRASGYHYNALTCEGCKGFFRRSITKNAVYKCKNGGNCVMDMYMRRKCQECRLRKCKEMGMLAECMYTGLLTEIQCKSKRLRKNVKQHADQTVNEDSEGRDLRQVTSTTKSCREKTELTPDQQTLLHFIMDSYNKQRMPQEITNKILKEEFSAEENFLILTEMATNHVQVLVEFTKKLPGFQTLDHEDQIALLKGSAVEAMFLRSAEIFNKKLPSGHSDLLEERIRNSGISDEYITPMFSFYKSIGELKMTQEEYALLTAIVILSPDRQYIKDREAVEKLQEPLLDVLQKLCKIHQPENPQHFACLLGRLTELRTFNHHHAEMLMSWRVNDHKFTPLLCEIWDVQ
The source made the active and inactive calls. The calls were made as follows: active = hit-call score of the fitted dose curve at least 0.9, where 1 is the maximum; inactive = score below 0.9.
Possible outcomes: true (1) = active, false (0) = inactive

{"compound": "CC(C)=CCC[C@H](C)CC=O", "class assignment": "false (0)"}
{"compound": "O=C1NC(=O)c2ccccc21", "class assignment": "false (0)"}
{"compound": "O=C(O)C[C@H](O)C[C@H](O)/C=C/c1c(C2CC2)nc2ccccc2c1-c1ccc(F)cc1", "class assignment": "false (0)"}
{"compound": "CCC(=O)/C=C/C1C(C)=CCCC1(C)C (stereo not given)", "class assignment": "false (0)"}
{"compound": "Nc1cc(N)cc(C(=O)O)c1", "class assignment": "false (0)"}
{"compound": "CC(CC(C)(C)C)CC(C)(C)CC(C)(C)C (stereo not given)", "class assignment": "false (0)"}
{"compound": "Nc1ccc(F)c([N+](=O)[O-])c1", "class assignment": "false (0)"}
{"compound": "CC(CCO)CCc1ccccc1 (stereo not given)", "class assignment": "false (0)"}
{"compound": "CC(=O)OCC=Cc1ccccc1", "class assignment": "false (0)"}
{"compound": "C=C(C)C(=O)OCCOC(=O)CC(C)=O", "class assignment": "false (0)"}
{"compound": "CC1CCC(C(C)(C)O)CC1 (stereo not given)", "class assignment": "false (0)"}
{"compound": "CC(C)c1ccc(C(C)C)cc1", "class assignment": "false (0)"}
{"compound": "Cc1cccc(C)c1C", "class assignment": "false (0)"}
{"compound": "O=S(=O)(O)c1ccc(O)c2ncccc12", "class assignment": "false (0)"}
{"compound": "CC(=O)C(C)=O", "class assignment": "true (1)"}

###

biological target: Hepatocyte nuclear factor 3-beta (Homo sapiens); assay: ATG_FoxA2_CIS: Attagene CIS-FACTORIAL HepG2 Assay for human Forkhead box A2 (FOXA2) (AID 2282942); conditions: HepG2 cis-reporter transcription factor activity, 24 h; actives raise or lower the signal
The source made the active and inactive calls. The calls were made as follows: active = hit-call score of the fitted dose curve at least 0.9, where 1 is the maximum; inactive = score below 0.9.

{"compound": "O=C(O)CN(CCN(CC(=O)O)CC(=O)O)CCN(CC(=O)O)CC(=O)O", "AC50": "inactive"}
{"compound": "COc1cc(C(C)(C)C)c(O)c(C(C)(C)C)c1", "AC50": "inactive"}
{"compound": "O=C1c2ccccc2C(=O)N1SC1CCCCC1", "AC50": "inactive"}
{"compound": "CCCCC(CC)COCCC#N (configuration not stated)", "AC50": "inactive"}
{"compound": "CC(C)(COC(=O)c1ccccc1)COC(=O)c1ccccc1", "AC50": "inactive"}
{"compound": "CC1=CC(=O)NS(=O)(=O)O1", "AC50": "inactive"}
{"compound": "CC1=CCC2C(C1)C2(C)C (configuration not stated)", "AC50": "inactive"}
{"compound": "CC(c1cc2ccccc2s1)N(O)C(N)=O (configuration not stated)", "AC50": "inactive"}
{"compound": "CCCCCCCCCCCCOCCO", "AC50": "47.6 µM (active)"}
{"compound": "O=C(O)c1ccc([N+](=O)[O-])cc1", "AC50": "inactive"}
{"compound": "CCCCCCCCCCCCCCCCCC(=O)OCC(CC)CCCC (configuration not stated)", "AC50": "inactive"}
{"compound": "CC(CN1c2ccccc2Sc2ccccc21)N(C)C (configuration not stated)", "AC50": "inactive"}
{"compound": "C[C@H]1C[C@H]2[C@@H]3CCC4=CC(=O)C=C[C@]4(C)[C@@]3(F)[C@@H](O)C[C@]2(C)[C@@]1(O)C(=O)COP(=O)(O)O", "AC50": "inactive"}
{"compound": "C=CCOc1nc(OCC=C)nc(OCC=C)n1", "AC50": "inactive"}
{"compound": "O=C(O)c1cn(C2CC2)c2cc(N3CCNCC3)c(F)cc2c1=O", "AC50": "inactive"}
{"compound": "CC(C)=CCC[C@H](C)CC=O", "AC50": "inactive"}
{"compound": "OC1C(O)C(O)C(O)C(O)C1O (configuration not stated)", "AC50": "inactive"}
{"compound": "C=CC(=O)OCCn1c(=O)n(CCOC(=O)C=C)c(=O)n(CCOC(=O)C=C)c1=O", "AC50": "52.4 µM (active)"}
{"compound": "Cc1ncc([N+](=O)[O-])n1C", "AC50": "inactive"}
{"compound": "OC1OC[C@@H](O)[C@H](O)[C@H]1O (some centres not stated)", "AC50": "inactive"}
{"compound": "O=C=NC1CCC(CC2CCC(N=C=O)CC2)CC1 (configuration not stated)", "AC50": "inactive"}
{"compound": "c1cc(C(c2ccc(OCC3CO3)cc2)c2ccc(OCC3CO3)cc2)ccc1OCC1CO1 (configuration not stated)", "AC50": "185 µM (active)"}
{"compound": "CCCCCC(=O)OCCc1ccccc1", "AC50": "inactive"}
{"compound": "O=C(O)C[C@H](O)C[C@H](O)/C=C/c1c(C2CC2)nc2ccccc2c1-c1ccc(F)cc1", "AC50": "inactive"}
{"compound": "CO[Si](C)(OC)c1ccccc1", "AC50": "inactive"}
{"compound": "CCCCCCCCCCCCSC", "AC50": "inactive"}
{"compound": "CC(=O)[O][Al][O]C(C)=O", "AC50": "inactive"}

###

target: human Retinoid X Receptor beta (RXRb), RXRB (gene 6257) (UniProt P28702); assay: ATG_RXRb_TRANS: Attagene TRANS-FACTORIAL HepG2 Assay for human Retinoid X Receptor beta (RXRb) (AID 2283013)
Sequence (P28702 whole entry, looked up): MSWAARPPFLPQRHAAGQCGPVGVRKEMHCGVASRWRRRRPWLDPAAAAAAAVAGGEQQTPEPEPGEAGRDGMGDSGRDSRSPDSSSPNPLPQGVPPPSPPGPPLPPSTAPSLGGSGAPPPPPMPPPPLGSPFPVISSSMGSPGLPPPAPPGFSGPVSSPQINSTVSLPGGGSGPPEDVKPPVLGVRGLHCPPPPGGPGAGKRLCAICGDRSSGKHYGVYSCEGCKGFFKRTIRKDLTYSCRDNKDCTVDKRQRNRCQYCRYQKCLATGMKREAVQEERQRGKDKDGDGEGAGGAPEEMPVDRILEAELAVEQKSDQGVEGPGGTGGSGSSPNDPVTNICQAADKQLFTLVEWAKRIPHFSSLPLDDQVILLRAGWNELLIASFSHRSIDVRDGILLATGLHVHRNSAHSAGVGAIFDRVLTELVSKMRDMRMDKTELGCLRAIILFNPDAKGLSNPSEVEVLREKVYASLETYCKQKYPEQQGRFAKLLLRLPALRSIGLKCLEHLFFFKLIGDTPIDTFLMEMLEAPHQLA
Results filed as inconclusive are left out. Activity calls are given as the source filed them. The calls were made as follows: active = hit-call score of the fitted dose curve at least 0.9, where 1 is the maximum; inconclusive = response in the unintended direction; inactive = score below 0.9.
Classes used: active, inactive

{"compound": "CCC(C)CCCC(C)(C)O (configuration not stated)", "class assignment": "inactive"}
{"compound": "Sc1nc(S)nc(S)n1", "class assignment": "inactive"}
{"compound": "NCCCN1CCOCC1", "class assignment": "inactive"}
{"compound": "OC1C(O)C(O)C(O)C(O)C1O (configuration not stated)", "class assignment": "inactive"}
{"compound": "C[C@H]1C[C@@H]2[C@H]([C@@H](O)C[C@@]3(C)[C@H]2CC[C@]3(O)C(=O)CO)[C@@]2(C)C=CC(=O)C=C12", "class assignment": "inactive"}
{"compound": "Cc1c(Cl)c(=O)oc2cc(O)ccc12", "class assignment": "inactive"}
{"compound": "CCC(=O)/C=C/C1C(C)=CCCC1(C)C (configuration not stated)", "class assignment": "active"}

###

assay: ATG_EGR_CIS: Attagene CIS-FACTORIAL HepG2 Assay for human Early Growth Response 1 (EGR1) (AID 2282938); conditions: HepG2 Attagene CIS-FACTORIAL EGR reporter mRNA; actives raise or lower the signal
Active and inactive are the calls of the source. Rule for the calls: active = hit-call score of the fitted dose curve at least 0.9, where 1 is the maximum; inactive = score below 0.9.
experimental readout: outcome

{"compound": "O=C(O)CCCCCCCC(=O)O", "experimental readout": "outcome", "test value": "inactive"}
{"compound": "O=C(O)c1cn(C2CC2)c2cc(N3CCNCC3)c(F)cc2c1=O", "experimental readout": "outcome", "test value": "inactive"}
{"compound": "CCCCCCC#CC(=O)OC", "experimental readout": "outcome", "test value": "inactive"}
{"compound": "CC(C)(Oc1ccc(CCNC(=O)c2ccc(Cl)cc2)cc1)C(=O)O", "experimental readout": "outcome", "test value": "inactive"}
{"compound": "ClCCCl", "experimental readout": "outcome", "test value": "inactive"}
{"compound": "CCC(=O)OCc1ccccc1", "experimental readout": "outcome", "test value": "inactive"}
{"compound": "C=C(C)C(=O)O[C@H]1C[C@@H]2CC[C@@]1(C)C2(C)C", "experimental readout": "outcome", "test value": "inactive"}
{"compound": "COc1ccc(NC(=O)CC(C)=O)cc1", "experimental readout": "outcome", "test value": "inactive"}
{"compound": "C=CC(C)(C)O", "experimental readout": "outcome", "test value": "inactive"}
{"compound": "CC(C)[C@@H]1CC[C@@H](C)CC1=O", "experimental readout": "outcome", "test value": "inactive"}
{"compound": "CCC(C)(O)CCC=C(C)C (stereo unspecified)", "experimental readout": "outcome", "test value": "inactive"}
